Target: Progesterone receptor (Oryctolagus cuniculus) (UniProt P06186)
Sequence (P06186 whole entry): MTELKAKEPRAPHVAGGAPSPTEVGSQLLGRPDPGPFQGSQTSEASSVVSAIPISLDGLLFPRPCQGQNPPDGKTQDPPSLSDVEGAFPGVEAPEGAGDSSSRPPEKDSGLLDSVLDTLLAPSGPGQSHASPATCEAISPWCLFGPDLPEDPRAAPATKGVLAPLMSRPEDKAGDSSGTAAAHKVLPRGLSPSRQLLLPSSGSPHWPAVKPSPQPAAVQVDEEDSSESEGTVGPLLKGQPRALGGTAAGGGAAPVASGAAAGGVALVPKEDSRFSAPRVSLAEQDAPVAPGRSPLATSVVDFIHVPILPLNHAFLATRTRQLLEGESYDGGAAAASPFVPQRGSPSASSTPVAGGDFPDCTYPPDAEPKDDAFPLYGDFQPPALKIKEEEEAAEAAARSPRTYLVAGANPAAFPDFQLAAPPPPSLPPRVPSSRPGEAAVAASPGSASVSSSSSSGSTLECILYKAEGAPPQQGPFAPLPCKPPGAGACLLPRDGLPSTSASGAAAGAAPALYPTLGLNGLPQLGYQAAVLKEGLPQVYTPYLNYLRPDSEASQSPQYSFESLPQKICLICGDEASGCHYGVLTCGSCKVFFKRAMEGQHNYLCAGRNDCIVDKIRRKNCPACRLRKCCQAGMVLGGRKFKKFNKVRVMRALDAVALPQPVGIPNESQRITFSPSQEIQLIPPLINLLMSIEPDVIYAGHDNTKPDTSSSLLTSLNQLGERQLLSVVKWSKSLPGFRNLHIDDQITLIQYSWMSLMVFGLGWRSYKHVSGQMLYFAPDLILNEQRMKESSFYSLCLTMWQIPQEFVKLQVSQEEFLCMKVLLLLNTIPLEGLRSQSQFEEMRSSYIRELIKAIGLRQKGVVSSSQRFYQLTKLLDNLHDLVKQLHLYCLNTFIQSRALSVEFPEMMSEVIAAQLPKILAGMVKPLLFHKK
Experiment: Percent inhibition of [3H]- progesterone binding to rabbit uterine progesterone receptor, at 10e-6 M compound concentration
Settings: at 1 µM
readout_kind: inhibition (%)

Recorded results for 10 molecules are shown here.
COC(=O)C1=C(C)N=C(C)/C(=C(/O)OC)C1c1ccc(Cl)c([N+](=O)[O-])c1 (stereo not drawn)    10
COC(=O)C1=C(C)N=C(C)/C(=C(/O)OC)C1c1ccc2nc(-c3ccc(OC)cc3)n(Cc3ccc(OC)cc3)c2c1 (stereo not drawn)    16
COC(=O)C1=C(C)N=C(C)/C(=C(\O)OC)C1c1cc2cc(-c3c(C)oc(C)c3C(=O)OC)ccc2nc1Cl (stereo not drawn)    10
COC(=O)C1=C(C)N=C(C)/C(=C(\O)OC)C1c1ccc(NC(C)=O)cc1 (stereo not drawn)    18
COC(=O)C1=C(C)N=C(C)/C(=C(/O)OC)C1c1ccc2nc(-c3ccc(OC)c(OC)c3)n(Cc3ccc(OC)c(OC)c3)c2c1 (stereo not drawn)    10
COC(=O)C1=C(C)N=C(C)/C(=C(/O)OC)C1c1ccc(NCc2ccccc2)c([N+](=O)[O-])c1 (stereo not drawn)    10
COC(=O)C1=C(C)N=C(C)/C(=C(\O)OC)C1c1cc(C(=O)c2ccc(C)cc2)c(OC)cc1OC (stereo not drawn)    18
COC(=O)C1=C(C)N=C(C)/C(=C(/O)OC)C1c1cc2ccccc2nc1Cl (stereo not drawn)    16
COC(=O)C1=C(C)N=C(C)/C(=C(/O)OC)C1c1ccc2[nH]nnc2c1 (stereo not drawn)    20
COC(=O)C1=C(C)N=C(C)/C(=C(/O)OC)C1c1ccc2nc(-c3ccccc3)c(-c3ccccc3)nc2c1 (stereo not drawn)    18

1 = COC(=O)C1=C(C)N=C(C)/C(=C(/O)OC)C1c1ccc2nc(-c3ccc(O)c(OC)c3)n(Cc3ccc(O)c(OC)c3)c2c1 (stereo not drawn)
2 = COC(=O)C1=C(C)N=C(C)/C(=C(/O)OC)C1c1cc2ccccc2n2nnnc12 (stereo not drawn)
query: Please state the entry with greater inhibition among 1 and 2 . Identify your selection by its label.
result: 1

Just for reference, ChEMBL document CHEMBL1124351 is where these values come from.
